Target: CDK2 (Homo sapiens, UniProt P24941)
Construct: High-Throughput Measurement of Cellular Endogenous CDK2; endogenous in cells; host or cells: OVCAR3
Experiment: Inhibition of CDK2: phospho-Rb (S807/811) HTRF measurement in OVCAR3 cells
Type: cell-based
Details: 24 h compound treatment, read-out: pRb (nM), IC50 in pRB(S807/811) assay
Measured Endpoint: IC50

Solved entries:
[[record]]
molecule = "Cn1nc(N2CCC(=O)NC2=O)c2ccc(C3CCN(Cc4cccc(S(=O)(=O)N5CCC(Nc6ncc(C(F)(F)F)c(-c7cnn(CC(F)(F)F)c7)n6)CC5)c4)CC3)c(F)c21 [Example 64]"
reported_measurement = "< 100 nM"

[[record]]
molecule = "Cn1nc(N2CCC(=O)NC2=O)c2ccc(C3CCN(CC(C)(C)c4cccc(S(=O)(=O)N5CCC(Nc6ncc(C(F)(F)F)c(-c7cnn(CC(F)(F)F)c7)n6)CC5)c4)CC3)cc21 [Example 90]"
reported_measurement = "< 100 nM"

[[record]]
molecule = "O=C1CCC(N2CCN(Cc3cccc(S(=O)(=O)N4CCC(Nc5ncc(C(F)(F)F)c(-c6cnn(CC(F)(F)F)c6)n5)CC4)c3)C3CC32)C(=O)N1 (centres unmarked) [Example 63]"
reported_measurement = "100 to 500 nM"

[[record]]
molecule = "Cn1nc(N2CCC(=O)NC2=O)c2ccc(C3CCN(CC(C)(C)Cc4cccc(S(=O)(=O)N5CCC(Nc6ncc(C(F)(F)F)c(-c7cnn(CC(F)(F)F)c7)n6)CC5)c4)CC3)cc21 [Example 98]"
reported_measurement = "< 100 nM"


Indicate the recorded IC50 value for this molecule: Cn1c(S(=O)(=O)N2CCC(Nc3ncc(C(F)(F)F)c(-c4cnn(CC(F)(F)F)c4)n3)CC2)cnc1CN1CCN(c2ccc(C3CCC(=O)NC3=O)cc2F)CC1 (centres unmarked) [Example 20] < 100 nM

Indicate the recorded IC50 value for this molecule: O=C1CCC(c2ccc(N3CCN(Cc4cccc(S(=O)(=O)N5CCC(Nc6ncc(C(F)(F)F)c(-c7cnn(CC(F)(F)F)c7)n6)[C@H](F)C5)c4)CC3)c(F)c2)C(=O)N1 (mixture of isomers) [Example 29] < 100 nM

Indicate the recorded IC50 value for this molecule: O=C1CCC(NC2CCN(Cc3cccc(S(=O)(=O)N4CCC(Nc5ncc(C(F)(F)F)c(-c6cnn(CC(F)(F)F)c6)n5)CC4)c3)CC2)C(=O)N1 (centres unmarked) [Example 72] < 100 nM

Indicate the recorded IC50 value for this molecule: O=C1CCN(C2CCN(Cc3cccc(S(=O)(=O)N4CCC(Nc5ncc(C(F)(F)F)c(-c6cnn(CC(F)(F)F)c6)n5)CC4)c3)C2)C(=O)N1 (centres unmarked) [Example 81] < 100 nM
